Listing: melting point of selected molecules

Worked examples follow.
molecule	measured-metric	result
O=C(N/N=C/c1cc(C(F)(F)F)cc(C(F)(F)F)c1O)c1ccc([N+](=O)[O-])cc1 [Example 339]	melting point	244 to 247 °C
CC/C(=N\NC(=O)c1ccc(C)cc1C)c1ccccc1O [Example 34]	melting point	175 to 176 °C
O=C(N/N=C/c1cc(Cl)cc(Br)c1O)c1ccccc1C(F)(F)F [Example 418]	melting point	266 to 274 °C
Cc1ccc(C(=O)N/N=C/c2ccc(Cl)c(Cl)c2O)cc1 [Example 355]	melting point	254 to 256 °C
Cc1cccc(C(=O)N/N=C/c2cc(Cl)cc(C(F)(F)F)c2O)c1 [Example 376]	melting point	199 to 201 °C
O=C(N/N=C/c1c(Cl)ccc(Cl)c1O)c1ccc([N+](=O)[O-])cc1 [Example 375]	melting point	250 to 300 °C (dec.)

Looking for the measured melting point of Cc1ccc(C(=O)N/N=C/c2ccccc2O)c(Br)c1 [Example 227] , can you help?
86 to 122 °C

Please do the same for Cc1ccc(C(=O)N/N=C(\CCc2ccccc2)c2ccccc2O)c(C)c1 [Example 31] as well.
143 to 145 °C

Please do the same for C/C(=N\NC(=O)c1ccc(Cl)cc1)c1cc(F)cc(F)c1O [Example 578] as well.
276 to 280 °C

Please do the same for C/C(=N\NC(=O)c1ccc(C)cc1)c1cc(F)cc(F)c1O [Example 575] as well.
220 to 222 °C

Please do the same for O=C(N/N=C/c1c(O)cccc1Cl)c1ccccc1C(F)(F)F [Example 407] as well.
222 to 226 °C

Please do the same for O=C(N/N=C/c1ccc(Cl)cc1O)c1ccc(F)cc1 [Example 390] as well.
226 to 228 °C

Please do the same for COc1ccc(/C(C)=N/NC(=O)c2cccc(Cl)c2)c(O)c1OC [Example 556] as well.
194 to 201 °C
